Condition Set: in methanol, 303.15 K
Measurement Label: solubility (mole fraction)
Numbers only.

The compound listed as O=C1OC(=O)c2ccc(Br)c3cccc1c23 shows solubility (mole fraction) equal to 0.000212

###

Condition Set: in ethanol, 293.15 K
Measurement Label: solubility (mole fraction)

Measured solubility (mole fraction) of O=C1OC(=O)c2ccc(Br)c3cccc1c23 : 6.99e-05

###

Condition Set: in acetic acid, 288.15 K
Measurement Label: solubility (mole fraction)
Give bare numbers.

Value of measured solubility (mole fraction) for the entry O=C1OC(=O)c2ccc(Br)c3cccc1c23 : 0.000382

###

Condition Set: in acetone, 298.15 K
Measurement Label: solubility (mole fraction)

Entry O=C1OC(=O)c2ccc(Br)c3cccc1c23 ; solubility (mole fraction) = 0.00192

###

Condition Set: in ethanol, 283.15 K
Measurement Label: solubility (mole fraction)
Answers are plain numbers.

solubility (mole fraction) recorded for this molecule, O=C1OC(=O)c2ccc(Br)c3cccc1c23 , is 3.65e-05

###

Condition Set: in ethanol, 288.15 K
Measurement Label: solubility (mole fraction)
Answers are plain numbers.

Lab note: O=C1OC(=O)c2ccc(Br)c3cccc1c23 gave solubility (mole fraction) of 5.08e-05

###

Condition Set: in acetone, 283.15 K
Measurement Label: solubility (mole fraction)
One number for each entry.

Recorded solubility (mole fraction) (compound O=C1OC(=O)c2ccc(Br)c3cccc1c23 ): 0.00119

###

Condition Set: in acetone, 278.15 K
Measurement Label: solubility (mole fraction)
Give bare numbers.

The recorded solubility (mole fraction) for entry O=C1OC(=O)c2ccc(Br)c3cccc1c23 equals 0.001

###

Condition Set: in acetic acid, 298.15 K
Measurement Label: solubility (mole fraction)
Numbers only.

Reported solubility (mole fraction) of O=C1OC(=O)c2ccc(Br)c3cccc1c23 : 0.000565

###

Condition Set: in acetic acid, 283.15 K
Measurement Label: solubility (mole fraction)
One number for each entry.

Looking up O=C1OC(=O)c2ccc(Br)c3cccc1c23 , I see its solubility (mole fraction) listed as 0.000316

###

Condition Set: in methanol, 288.15 K
Measurement Label: solubility (mole fraction)
Give bare numbers.

Measured solubility (mole fraction), O=C1OC(=O)c2ccc(Br)c3cccc1c23 : 8.62e-05

###

Condition Set: in acetone, 303.15 K
Measurement Label: solubility (mole fraction)

Data point: O=C1OC(=O)c2ccc(Br)c3cccc1c23 ; solubility (mole fraction) = 0.00224

###

Condition Set: in methanol, 283.15 K
Measurement Label: solubility (mole fraction)
Answers are plain numbers.

solubility (mole fraction) measured on O=C1OC(=O)c2ccc(Br)c3cccc1c23 = 6.41e-05

###

Condition Set: in acetic acid, 303.15 K
Measurement Label: solubility (mole fraction)
Answers are plain numbers.

For O=C1OC(=O)c2ccc(Br)c3cccc1c23 the compound record lists solubility (mole fraction) as 0.000666

###

Condition Set: in methanol, 278.15 K
Measurement Label: solubility (mole fraction)
One number for each entry.

Notebook: O=C1OC(=O)c2ccc(Br)c3cccc1c23 , solubility (mole fraction) read as 4.62e-05
